Test system: PDPK1
Settings: concentration: 1 μM, replicates: in singlicate; n = 1;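 also: KINOMEscan kinase panel screen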
Readout label: %Inh (%)
Write down the numeric answer in % and omit the unit.

State, in one line, measured %Inh of Cl.O=C(Nc1ccc(Oc2ccc3[nH]c(NC(=O)c4ccco4)nc3c2)cc1)Nc1cc(C(F)(F)F)ccc1F [GW683134]
14

State, in one line, measured %Inh of Cc1ccc(NC(=O)c2ccc(Cl)c(Cl)c2)cc1-c1ccc(C(=O)Nc2ccncc2)cc1 [GSK1398460]
27

State, in one line, measured %Inh of O=C(Nc1n[nH]c2nc(-c3ccccc3O)ccc12)C1CC1 [SB-711880]
0

State, in one line, measured %Inh of Cn1cc(-c2ccc3c(c2)CCN3C(=O)Cc2cc(F)cc(C(F)(F)F)c2)c2c(N)ncnc21 [GSK2635225]
2

---

So I've got a bunch of compounds here, and I need their %Inh values.
Test system: EPHA7
Details: concentration: 1 μM, replicates: in singlicate; n = 1
Give the value; after it, write the unit.

State, in one line, measured %Inh of NCCC(NC(=O)c1cc(Br)c(-c2ccnc3[nH]ccc23)s1)c1ccccc1.O=C(O)C(F)(F)F.O=C(O)C(F)(F)F (centres unmarked) [GSK1307810]
3%

State, in one line, measured %Inh of CC(C)c1nc(-c2cccc(NS(=O)(=O)c3c(F)cccc3F)c2)c(-c2ccnc(Nc3ccc(N4CCOCC4)nc3)n2)s1.Cl [GSK1723980]
0%

State, in one line, measured %Inh of Cc1cc(-c2c(-c3ccc(F)cc3)ncn2CCCN2CCOCC2)nc(N)n1 [SB-222517]
0%

State, in one line, measured %Inh of "CN(c1ccc(F)c(NC(=O)c2cccc(OC(C)(C)C#N)c2Cl)c1)c1ccc2nc(NC(=O)C3CC3)sc2n1"
0%

State, in one line, measured %Inh of CCOc1nccc(-c2c(-c3ccc(F)cc3)ncn2C2CCNCC2)n1 [SB-249175]
0%

State, in one line, measured %Inh of COc1ccc(C2=C(Nc3cccc(O)c3)C(=O)NC2=O)cc1 [SB-390766]
4%

State, in one line, measured %Inh of CN1CCN(Cc2ccc(NC(=O)Nc3ccc(N(C)c4ccnc(Nc5ccc(CS(C)(=O)=O)cc5)n4)cc3)cc2)CC1.Cl [GW827654]
10%

State, in one line, measured %Inh of Nc1ncnc2scc(-c3ccc(NC(=O)Cc4cc(F)ccc4F)cc3)c12.O=C(O)C(F)(F)F [SB-731254-M]
4%

---

System: AXL
Details: concentration: 1 μM, replicates: in singlicate; n = 1
So I've got a bunch of compounds here, and I need their %Inh values.

State, in one line, measured %Inh of "Nc1ncnc2scc(-c3ccc(NC(=O)Cc4cc(F)ccc4F)cc3)c12.O=C(O)C(F)(F)F"
36%

State, in one line, measured %Inh of "CC(=O)Nc1cn2nc(Oc3cccc(NC(=O)c4cccc(C(F)(F)F)c4)c3)ccc2n1"
51%

State, in one line, measured %Inh of "O=C(O)C(F)(F)F.O=c1[nH]ccc2nc(N[C@@H]3CCNC3)nc(Nc3cc(Cl)cc(Cl)c3)c12"
92.1%

State, in one line, measured %Inh of "CN(C)c1ncnc2nc[nH]c12"
0%
